The measured values listed here are drawn from ChEMBL document CHEMBL1961873.

inhibition by entry:
# SYSTEM NAME: Phosphorylase b kinase gamma catalytic chain, liver/testis isoform (Homo sapiens) (UniProt P15735);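 further: reported value is the mean inhibition of PHKG2 from the GSK_PKIS screening set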
# Sequence (P15735 whole entry, canonical isoform): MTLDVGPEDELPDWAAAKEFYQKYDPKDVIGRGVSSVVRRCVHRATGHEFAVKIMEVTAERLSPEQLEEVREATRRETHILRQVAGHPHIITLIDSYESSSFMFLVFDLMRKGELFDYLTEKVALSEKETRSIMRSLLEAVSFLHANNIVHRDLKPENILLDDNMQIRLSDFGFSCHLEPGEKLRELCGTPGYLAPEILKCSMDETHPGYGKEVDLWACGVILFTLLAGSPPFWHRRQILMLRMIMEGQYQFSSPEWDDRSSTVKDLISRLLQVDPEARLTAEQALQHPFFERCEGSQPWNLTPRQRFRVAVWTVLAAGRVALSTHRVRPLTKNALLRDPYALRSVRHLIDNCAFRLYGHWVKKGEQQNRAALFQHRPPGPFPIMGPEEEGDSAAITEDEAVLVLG
# TEST CONTEXT: at 1 µM
Expressed in %, but write only the number.

Cc1ccc(C(=O)NC2CCC2)cc1-c1ccc(C(=O)NCC2CC2)cc1	2
COc1cc2ncn(-c3cc(OCc4cccs4)c(C(N)=O)s3)c2cc1OC	10.1
Fc1ccc(-c2nc3n(c2-c2ccncc2)CCS3)cc1	2.33
O=C1Nc2ccc(I)cc2C1=Cc1cc(Br)c(O)c(Br)c1	4.75
O=C(NCC1CC1)c1ccc(-c2cccc(C(=O)NC3CC3)c2)cc1	-1.04
Cc1ccc(C(=O)NC(C)C)cc1-c1ccc(C(=O)NCC2CC2)cc1	-6.57

Record COc1ccc(-c2ccc3c(NC(=O)C4CC4)n[nH]c3n2)cc1 , field inhibition: 5.44

Record C[C@@H](Oc1cc(-n2cnc3ccc(OC4CCN(C)CC4)cc32)sc1C(N)=O)c1ccccc1Cl , field inhibition: 4.86

Record COc1cc(Nc2ncc3c(C)nc(-c4cccc(Oc5ccccc5)c4)n3n2)cc(OC)c1OC , field inhibition: -0.4

Record Nc1nccc(-c2c(-c3ccc(F)cc3)ncn2C2CCC(O)CC2)n1 (stereo unspecified) , field inhibition: -5.93

Record Clc1ccc(CNc2nccc(-c3cnn4ncccc34)n2)cc1 , field inhibition: 2.28

====

inhibition by entry:
# SYSTEM NAME: Activated CDC42 kinase 1 (Homo sapiens)
# TEST CONTEXT: at 1 µM
# Description: GSK_PKIS: TNK2 mean inhibition at 1 uM [Nanosyn]
Expressed in %, but write only the number.

COC(=O)Nc1nc2ccc(Sc3ccc(NC(=O)Nc4cc(C(F)(F)F)ccc4F)cc3)cc2[nH]1	1.64
CN(C)CCCNc1nccc(-c2c(-c3ccc(F)cc3)nn3cc(C(F)(F)F)ccc23)n1	1.33
COc1ccc(-c2ccc3c(NC(=O)C4CC4)n[nH]c3n2)cc1	1.42
FC(F)(F)c1cccc(Nc2nccc(-c3cnn4nc(-c5ccccc5)ccc34)n2)c1	1.15
CNC(=O)c1cncc(/C=C/c2c(C)cccc2C)c1	9.44

Tested on Activated CDC42 kinase 1 (Homo sapiens), the item CCc1cccc(CC)c1/C=C/c1cncc(C(=O)NC)c1 showed inhibition equal to 2.37

Tested on Activated CDC42 kinase 1 (Homo sapiens), the item COc1cc2ncn(-c3cc(OCc4ccccc4C(F)(F)F)c(C(C)=O)s3)c2cc1OC showed inhibition equal to 3.29

====

inhibition by entry:
# SYSTEM NAME: Tyrosine-protein kinase TXK (Homo sapiens) (UniProt P42681);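 further: value given is the mean percent inhibition of TXK kinase activity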
# Sequence (whole entry): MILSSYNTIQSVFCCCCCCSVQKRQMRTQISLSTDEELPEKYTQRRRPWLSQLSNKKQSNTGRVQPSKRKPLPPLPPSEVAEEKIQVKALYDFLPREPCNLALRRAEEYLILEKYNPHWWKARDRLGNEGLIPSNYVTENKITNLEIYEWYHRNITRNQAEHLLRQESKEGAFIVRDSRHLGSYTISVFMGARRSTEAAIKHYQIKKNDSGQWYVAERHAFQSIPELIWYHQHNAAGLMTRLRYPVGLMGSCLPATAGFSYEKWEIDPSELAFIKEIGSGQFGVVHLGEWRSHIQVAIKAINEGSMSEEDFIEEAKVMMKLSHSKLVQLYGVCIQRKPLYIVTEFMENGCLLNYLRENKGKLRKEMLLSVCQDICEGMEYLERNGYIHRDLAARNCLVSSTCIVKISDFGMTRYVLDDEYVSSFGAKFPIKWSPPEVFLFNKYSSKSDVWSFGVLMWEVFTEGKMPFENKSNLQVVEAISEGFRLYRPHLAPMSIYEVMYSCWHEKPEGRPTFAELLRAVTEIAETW
# TEST CONTEXT: at 1 µM
Expressed in %, but write only the number.

Look over these answered cases.
NS(=O)(=O)c1ccc(Nc2cc(-c3ccc(O)c(F)c3)n[nH]2)cc1	-0.33
COc1cccc(-n2cnc3c(N/N=C/c4ccncc4)ncnc32)c1	4.69
NCc1ccc(-n2c(-c3nonc3N)nc3cnccc32)cc1	3.57

Record Fc1ccc(-c2ncn(C3CCNCC3)c2-c2ccnc(Oc3ccc4c(c3)OCO4)n2)cc1 , field inhibition: 3.68

Record CCc1nccc2c1nc(-c1nonc1N)n2CC , field inhibition: 7.06
